Kindly supply the reported IC50 values for the records listed here.
Tested on: NCI-H358 (K-Ras G12C)
Assay: CellTiter-Glo cell viability assay, NCI-H358
Type: cell-based, human
Conditions: Homo sapiens, NCI-H358, read-out: H358 Cell Viability assay data (K-Ras G12C, IC50, uM), Table 5
Description: Note - The following protocol describes a procedure for monitoring cell viability of K-Ras mutant cancer cell lines in response to a compound of the invention. Other RAS isoforms may be employed, though the number of cells to be seeded will vary based on cell line used. Test compounds (132.5 nL) were directly dispensed into the assay plates containing cells. […] Luminescence was measured using the PerkinElmer Enspire. […]

Observe how each entry below is paired with its result.
| COMPOUND | IC50 |
| --- | --- |
| CCn1c(-c2cccnc2[C@H](C)OC)c2c3cc(ccc31)-c1cccc(c1)C[C@H](NC(=O)[C@H](C(C)C)N1CC[C@]3(CCN(C(=O)C#C[C@H]4COCCN4C)C3)C1=O)C(=O)N1CCC[C@H](N1)C(=O)OCC(C)(C)C2 (atropisomer, axis not shown) [Compound A592] | < 0.01 µM |
| C=CC(=O)N1CC[C@H](C(=O)N(C)[C@H](C(=O)N[C@H]2Cc3cc(O)cc(c3)-c3ccc4c(c3)c(c(-c3cccnc3)n4C3CC3)CC(C)(C)COC(=O)[C@@H]3CCCN(N3)C2=O)C(C)C)C1 [Compound A160] | 0.1 to 1 µM |
| CCn1c(-c2cccnc2[C@H](C)OC)c2c3cc(ccc31)-c1cc(O)cc(c1)C[C@H](NC(=O)[C@H](C(C)C)N(C)C(=O)[C@H]1CCN(C(=O)C#CCN3CCOCC3)C1)C(=O)N1CCC[C@H](N1)C(=O)OCC(C)(C)C2 [Compound A182] | < 0.01 µM |
| C=CC(=O)N1CCN(C(=O)N(C)[C@H](C(=O)N[C@H]2Cc3nc(cs3)-c3ccc4c(c3)c(c(-c3cccnc3[C@H](C)OC)n4CC(F)(F)F)CC(C)(C)COC(=O)[C@@H]3CCCN(N3)C2=O)C(C)C)CC1 [Compound A464] | < 0.01 µM |
| C=CC(=O)N1CC[C@H](C(=O)N(C)[C@H](C(=O)N[C@H]2Cc3cc(O)cc(c3)-c3ccc4c(c3)c(c(-c3cnccc3[C@H](C)OC)n4CC)CC(C)(C)COC(=O)[C@@H]3CCCN(N3)C2=O)C(C)C)C1 [Compound A112] | < 0.01 µM |
| CCn1c(-c2cccnc2COC)c2c3cc(ccc31)-c1cc(O)cc(c1)C[C@H](NC(=O)[C@H](C(C)C)N(C)C(=O)[C@H]1CCN(C(=O)/C=C\CN(C)C)C1)C(=O)N1CCC[C@H](N1)C(=O)OCC(C)(C)C2 [Compound A161] | > 1 µM |
| CCn1c(-c2cccnc2COC)c2c3cc(ccc31)-c1cc(C)cc(c1)C[C@H](NC(=O)[C@H](C(C)C)N(C)C(=O)[C@H]1CCN(C(=O)C#CCN(C)C)C1)C(=O)N1CCC[C@H](N1)C(=O)OCC(C)(C)C2 [Compound A157] | < 0.01 µM |

Tell me the measured IC50 of C=CC(=O)N1CC[C@H](C(=O)N(C)[C@H](C(=O)N[C@H]2Cc3cc(O)cc(c3)-c3ccc4c(c3)c(c(-c3cc(C)cnc3[C@H](C)OC)n4CC)CC(C)(C)COC(=O)[C@@H]3CCCN(N3)C2=O)C(C)C)C1 [Compound A167] , please.
< 0.01 µM
